Reference for the values: patent US9868720B2

- system under test: DLK kinase (N-terminally GST-tagged DLK, catalytic domain amino acid 1-520) (Homo sapiens (Human), UniProt Q12852)
- Sequence (Q12852 1-520): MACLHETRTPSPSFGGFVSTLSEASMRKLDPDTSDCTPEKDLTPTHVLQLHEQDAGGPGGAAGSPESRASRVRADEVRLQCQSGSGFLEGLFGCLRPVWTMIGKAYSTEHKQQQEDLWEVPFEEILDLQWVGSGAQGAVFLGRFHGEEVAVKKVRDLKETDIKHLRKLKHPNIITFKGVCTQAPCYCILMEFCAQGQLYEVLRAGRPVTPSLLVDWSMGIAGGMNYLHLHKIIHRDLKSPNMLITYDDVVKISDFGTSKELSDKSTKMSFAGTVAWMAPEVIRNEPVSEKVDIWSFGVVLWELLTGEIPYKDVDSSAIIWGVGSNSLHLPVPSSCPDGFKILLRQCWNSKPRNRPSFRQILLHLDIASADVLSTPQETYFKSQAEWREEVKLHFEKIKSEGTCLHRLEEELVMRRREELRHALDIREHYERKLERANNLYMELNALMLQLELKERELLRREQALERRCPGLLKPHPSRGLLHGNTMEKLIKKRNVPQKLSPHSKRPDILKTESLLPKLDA
- procedure details: DLK TR-FRET assay
- study conditions: 30 μM ATP, MKK4 K131M substrate, read-out: DLK HTRF (Ki)
readout: pKi
Answers are plain numbers, as −log10 of the molar value.

These solved cases illustrate the format of a correct answer.
CC(C)Oc1nc(Nc2cc(C(F)(F)F)ccn2)cc(C2CCOCC2)n1 : 7.32
CC(C)c1nc(Nc2cc(C(F)(F)F)ccn2)cc(C2CCCN(C)C2)n1 (centres unmarked) : 6.85
O=C1CC(c2cc(Nc3cc(C(F)(F)F)ccn3)nc(C3CCOC3)n2)CCN1 (centres unmarked) : 6.92
Cc1ccnc(Nc2cc(C3CCNCC3)nc(N3CCCC3)n2)c1 : 7.69
FC(F)(F)c1ccnc(Nc2cc(C3CCNC3)nc(N3CCCC3)n2)c1 (centres unmarked) : 8.32

# return pKi for each item in the list
1. C[C@H]1CCCN1c1nc(Nc2cc(C(F)(F)F)ccn2)cc(C2CCNCC2)n1
2. CS(=O)(=O)N1CCCC(c2cc(Nc3cc(C(F)(F)F)ccn3)nc(C3CCCC3)n2)C1 (centres unmarked)
3. CC1CCCN1c1nc(Nc2cc(C(F)(F)F)ccn2)cc(C2CCN(C)C(=O)C2)n1 (centres unmarked)
4. CC1CCCN1c1nc(Nc2cc(C(F)(F)F)ccn2)cc(C2CCN(C(=O)Cn3ccnc3)C2)n1 (centres unmarked) [Example 204]
5. FC(F)(F)c1ccnc(Nc2cc(C3CCOCC3)nc(N3C4CCC3COC4)n2)c1
6. CC1CCCN1c1nc(Nc2cc(C(F)(F)F)ccn2)cc(C2CCN(C(=O)c3cn(C)cn3)C2)n1 (centres unmarked)
7. CC(=O)N1CCC(c2cc(Nc3cc(C(F)(F)F)ccn3)nc(-c3cnn(C)c3)n2)CC1
8. FC1(F)CN(c2nc(Nc3cc(C(F)(F)F)ccn3)cc(C3CCN(CC4CCOCC4)C3)n2)C1 (centres unmarked)

1. 7.80
2. 7.43
3. 8.21
4. 8.11
5. 6.74
6. 8.76
7. 7.91
8. 7.50

List the reported pKi of each compound below.
1. FC1(F)CCCN(c2nc(Nc3cc(C(F)(F)F)ccn3)cc(C3CCNC3)n2)C1 (centres unmarked)
2. CC(=O)N1CCC(C#N)(c2cc(Nc3cc(C(F)(F)F)ccn3)nc(N3CCC(F)(F)C3)n2)CC1

1: 8.51; 2: 7.57

Return reported pKi values for all items listed beneath this line.
1. COc1ccnc(Nc2cc(C3CCN(C(C)=O)C3)nc(N3CCCC3C)n2)c1 (centres unmarked)
2. CC(=O)N1CCC(c2cc(Nc3cc(C(F)(F)F)ccn3)nc(N3CC(F)C(F)C3)n2)CC1 (centres unmarked)

[7.00, 7.57]
